# systemTested: IgG receptor FcRn large subunit p51 (Homo sapiens)
# Sequence (P55899 whole entry): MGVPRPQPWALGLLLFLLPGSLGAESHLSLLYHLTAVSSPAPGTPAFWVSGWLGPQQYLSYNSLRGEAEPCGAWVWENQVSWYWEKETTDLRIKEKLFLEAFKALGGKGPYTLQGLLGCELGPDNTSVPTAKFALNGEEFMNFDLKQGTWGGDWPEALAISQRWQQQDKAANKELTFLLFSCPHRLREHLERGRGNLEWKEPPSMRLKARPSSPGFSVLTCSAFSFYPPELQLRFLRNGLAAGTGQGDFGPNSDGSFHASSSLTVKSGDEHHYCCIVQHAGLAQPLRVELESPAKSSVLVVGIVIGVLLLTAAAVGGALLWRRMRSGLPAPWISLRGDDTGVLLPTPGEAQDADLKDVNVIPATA
# assayInfo: Binding affinity to human FcRn at pH 6 by surface plasmon resonance assay
Square brackets hold non-standard residues; d marks the D form. Peptide text beside a SMILES is read from it. Dab = NCC[C@H](N)C(=O)O
// values below are reported pKd
# log scale: pKd equals minus log10 of the concentration in mol/L

Solved entries:
CC(C)C[C@H](NC(=O)CNC(=O)CNC(=O)[C@H](Cc1cccc(Cl)c1)NC(=O)[C@H](Cc1cnc[nH]1)NC(=O)CNC(=O)[C@@H](NC(=O)[C@@H](NC(=O)[C@H](Cc1ccccc1)NC(=O)[C@H](CCCNC(=N)N)NC(=O)[C@@H](N)CCC(N)=O)C(C)(C)S)[C@@H](C)O)C(=O)N[C@@H](Cc1ccc(O)cc1)C(=O)N1CCC[C@H]1C(=O)N[C@@H](CS)C(=O)O :: 3.64
COc1ccc(C[C@H](NC(=O)[C@H](Cc2cnc[nH]2)NC(=O)CNC(=O)[C@@H](NC(=O)[C@@H](NC(=O)[C@H](Cc2ccccc2)NC(=O)[C@H](CCCN=C(N)N)NC(=O)[C@@H](N)CCC(N)=O)C(C)(C)S)[C@@H](C)O)C(=O)NCC(=O)NCC(=O)N[C@@H](CC(C)C)C(=O)N[C@@H](Cc2ccc(O)cc2)C(=O)N2CCC[C@H]2C(=O)N[C@@H](CS)C(=O)N[C@@H](CC(N)=O)C(=O)NCC(=O)N2CCC[C@H]2C(=O)O)cc1 :: 4.74
CC(C)C[C@H](NC(=O)CNC(=O)CNC(=O)[C@H](Cc1ccccc1)NC(=O)[C@H](Cc1cnc[nH]1)NC(=O)CNC(=O)[C@@H](NC(=O)[C@H](CCN)NC(=O)[C@H](Cc1ccccc1)NC(=O)[C@H](CCCN=C(N)N)NC(=O)[C@@H](N)CCC(N)=O)[C@@H](C)O)C(=O)N[C@@H](Cc1ccc(O)cc1)C(=O)N1CCC[C@H]1C(=O)N[C@@H](CCC(=O)O)C(=O)N[C@@H](CC(N)=O)C(=O)NCC(=O)N1CCC[C@H]1C(=O)O (H-QRF[Dab]TGHFGGLYPENGP-OH) :: 5.32

The record that follows has no pKd shown yet.
Determine from records and report pKd for `CC(C)C[C@@H](C(=O)N[C@@H](Cc1ccc(O)cc1)C(=O)N1CCC[C@H]1C(=O)N[C@@H](CS)C(=O)O)N(C)C(=O)CN(C)C(=O)CNC(=O)[C@H](Cc1ccccc1)NC(=O)[C@H](Cc1ccncc1)NC(=O)CNC(=O)[C@@H](NC(=O)[C@@H](NC(=O)[C@H](Cc1ccccc1)NC(=O)[C@@H](N)CCCNC(=N)N)C(C)(C)S)[C@@H](C)O` 7.17

Reference for the values: ChEMBL document CHEMBL1150419
